System: SF-539
MEASUREMENT NOTES: NCI tumour cell line growth inhibition, 48 h
Activity calls are given as the source filed them. Rule as the data show it: active = GI50 up to about 1.1 µM and inactive = higher.
Labels: 1.0 for active, 0.0 for inactive

COMPOUND | TESTED ON | CATEGORY LABEL
CC(=O)/N=C1\NC(=O)/C(=C/c2ccccc2Cl)N1C | SF-539 | 0.0
CCC(N)(C(=O)O)C(C)C (configuration not stated) | SF-539 | 0.0
CC(C)/C=C1\CCC(CN2CCCC2)C1=O (configuration not stated) | SF-539 | 0.0
CCN(CC)c1ccc2cc(C(N)=O)c(=N)oc2c1 | SF-539 | 0.0
COc1ccc(C(OCC2OC(n3cnc4c(=O)n(Cc5ccccc5[N+](=O)[O-])nnc43)C(O)C2O)(c2ccccc2)c2ccc(OC)cc2)cc1 (configuration not stated) | SF-539 | 0.0
CC(=S)NC=C(C(N)=O)C(N)=O | SF-539 | 0.0
O=C(c1cc(Cl)ccc1Cl)N1CCN(C(=O)c2cc(Cl)ccc2Cl)CC1 | SF-539 | 0.0
COc1cc(C2c3cc4c(cc3[C@H](NS(C)(=O)=O)C3COC(=O)[C@H]23)OCO4)cc(OC)c1OC (some centres not stated) | SF-539 | 1.0
N#C[BH2-][n+]1cn(C2CC(OP(=O)(O)OCC3OC(n4cnc5c(N)ncnc54)CC3O)C(CO)O2)c2nc(N)[nH]c(=O)c21 (configuration not stated) | SF-539 | 0.0
O=C1c2ccccc2C(=O)N1C/C=N/NS(=O)(=O)c1ccc2ccccc2c1 | SF-539 | 0.0
CCS/C(=N\c1ccccc1)SC | SF-539 | 0.0
COc1ccc(-c2nc(N)c(C#N)c3c2CCSc2ccc(C)cc2-3)cc1OC | SF-539 | 0.0
CC(=O)c1ccc(-c2oc(-c3ccccc3)cc2-c2ccc3c(c2)OCO3)s1 | SF-539 | 0.0
CCNCC(O)COc1ccc2c(c1)[n+]([O-])nc(N)[n+]2[O-] (configuration not stated) | SF-539 | 0.0
CC(C)(C)OC(=O)N(O)CCCn1cnc2c(N)ncnc21 | SF-539 | 0.0
C=CCC(OCCOCC)c1cc(OCCOCC)ccc1OC (configuration not stated) | SF-539 | 0.0
C=Cc1c(C)c(O)cc2c1-c1ccc(O)c(C)c1CC2 | SF-539 | 0.0
CC(=O)C1=CN=C2C(=O)N(c3ccccc3)N(C)C12C (configuration not stated) | SF-539 | 0.0
[Se]=P(c1ccccc1)(c1ccccc1)c1ccc(C(c2ccccc2)=P(c2ccccc2)(c2ccccc2)c2ccccc2)cc1 | SF-539 | 0.0
Cc1nc2c(O)cc3c4c([nH]c3c2nc1C)C(=O)CCC4 | SF-539 | 0.0
O=C1CC2(CCN(Cc3ccccc3)CC2)C(=O)N1N1CCCCC1 | SF-539 | 0.0
C/C(=N\Nc1nc2ccccc2o1)c1ccncn1 | SF-539 | 1.0
Cc1cc(=O)n2nc(CSc3nnc(Sc4cc(O)ccc4O)s3)sc2n1 | SF-539 | 0.0
CCOC(=O)C(NC(=O)c1ccccc1)(N1CCOCC1)C(F)(F)F (configuration not stated) | SF-539 | 0.0
CCOC(=O)NC(=O)c1cn(CCCOC(=O)CCCCCCCCCCC(=O)OCCCn2cc(C(=O)NC(=O)OCC)c(=O)n(C)c2=O)c(=O)n(C)c1=O | SF-539 | 0.0
CCCCCC(/C=C/[C@@H]1[C@H]2CC(=O)O[C@H]2C[C@H]1N1CCOCC1)OC1CCCO1 (some centres not stated) | SF-539 | 0.0
C1CN2CCO[SiH](O1)OCC2 | SF-539 | 0.0
